B1: CPEB3 Ribozyme (parent)
chain: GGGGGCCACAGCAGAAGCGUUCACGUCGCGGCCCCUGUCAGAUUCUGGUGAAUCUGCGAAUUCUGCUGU

- Variants of: B1
- Protocol Text: self-cleavage, relative activity (ratio to wild type); higher = more cleavage; co-transcriptional
Endpoint Name: self-cleavage

Residue String: GGGGGCCACAGCAGAAGCGUUCACGUCGCGGCCCAUGUCAGAUUCUGGUGAAUCAGCGAAUUCUGCUGU [C35A U55A]
Recorded Result: 0.244

Residue String: GGGGGGCACAGCAGAAGCGUUCACGUCGCGGCCCCUGUCAGAUUCUGGUGAAUCUGCUAAUUCUGCUGU [C6G G58U]
Recorded Result: 0.402

Residue String: GGGGGCCGCAGCAGAAGCGUUCACGUCGCGGCCCCUGUCAGAUUCUGGCGAAUCUGCGAAUUCUGCUGU [A8G U49C]
Recorded Result: 0.828

Residue String: GGGGGUCACAGCAGAAGCGUUCACGUCGCGGCCCCUGUCAGAUUCUGCUGAAUCUGCGAAUUCUGCUGU [C6U G48C]
Recorded Result: 0.995

Residue String: GGGGGCCACAGCAGAAGCGUUCACGUCGCGGCCCCUGUCAGCUUCUGGUGAAUCUGCGAAUUCGGCUGU [A42C U64G]
Recorded Result: 0.769

Residue String: GGGGGCCACAGCAGAAGCGUUCACGUCGCGGCCCCUGUCAGAUUCUGGUGAAUCUGCGAAUUCUGCAUU [U67A G68U]
Recorded Result: 1.01

Residue String: GGGGGCCACAGCAGAAGCGUUCACGUCGCGGCCCCGUUCAGAUUCUGGUGAAUCUGCGAAUUCUGCUGU [U36G G37U]
Recorded Result: 0.199

Residue String: GGGGGCCACAGCGGAAGCGUUCACGUCGCGGCCACUGUCAGAUUCUGGUGAAUCUGCGAAUUCUGCUGU [A13G C34A]
Recorded Result: 0.797

Residue String: GGGGGCCACAGCAGAAGCGUUCACGUCGCGCCCCCUGUCAGAUUCUGGUGAAUCUGCAAAUUCUGCUGU [G31C G58A]
Recorded Result: 0.21

Residue String: GGGGGCCACAGCAGAAGCGUUCUCGUCGCGGCCCCUGUCGGAUUCUGGUGAAUCUGCGAAUUCUGCUGU [A23U A40G]
Recorded Result: 0.951

Residue String: GGGGGCCACAACAGAAGCGUUCGCGUCGCGGCCCCUGUCAGAUUCUGGUGAAUCUGCGAAUUCUGCUGU [G11A A23G]
Recorded Result: 0.792

Residue String: GGGGGCCACAGCAGAAGCGUUCACGUCGCGGCCCCUGUCAGAUACUGGUGUAUCUGCGAAUUCUGCUGU [U44A A51U]
Recorded Result: 0.998

Residue String: GGGGGCCACAGCAGAAGCGUUCACGUCGCGGCCCCUGUCUGAUUCUGGUGAAUCUGCGAAUUCUGAUGU [A40U C66A]
Recorded Result: 0.397

Residue String: GGGGGCCACAGCAUAAGCGUUCACGUCGCGGCCCCUGUCAGAUUCUGGUGAAUCUGCGAAUUAUGCUGU [G14U C63A]
Recorded Result: 0.994

Residue String: GGGGGCCACAGCAGAAGCGUUCACGUCGCGUCCCCUGUCAGAUUCUGGUGAUUCUGCGAAUUCUGCUGU [G31U A52U]
Recorded Result: 0.655
